B1: HDV Ribozyme (parent)
chain: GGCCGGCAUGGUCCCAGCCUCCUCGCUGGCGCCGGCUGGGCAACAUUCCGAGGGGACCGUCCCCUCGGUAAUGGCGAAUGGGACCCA

variants of: B1; assay: self-cleavage, relative activity (ratio to wild type); higher = more cleavage; co-transcriptional
property-name: self-cleavage
Output: the number by itself.

# self-cleavage (variant: G53U C84U ) is 0.821

self-cleavage reading for U46G C49A : 0.391

Query G54U C85U yields self-cleavage of 1.02

# self-cleavage of A16C G34A = 0.18

The value of self-cleavage measured for the variant C21G U79G turned out to be 0.0554

self-cleavage measured on C62G A77G = 0.745

What the record says about C33A G74U : self-cleavage is 0.0755

Briefly, self-cleavage measured for G50A G67U : 1.06

Record C26G U72G . Reported self-cleavage: 0.755

The recorded self-cleavage for C7G C18U is 0.0639

Measured self-cleavage of C13A C14U : 0.18
